Tested on: SK-MEL-28 melanoma
Assay: NCI-60 one-dose screen, 48 h (100 = growth as untreated, 0 = no growth, -100 = all killed)
Settings: 10 µM unless noted
This is part of a sample that, as a whole, favours compounds with a hit. Of some 83,000 tested, about 20% had one in any assay.
MEASURE: growth (%)
Just the number please, in %, no unit attached.

Bench note: what growth did COc1c(O[C@@H]2OC(CO)[C@H](O)[C@H](O)C2O)cc2oc3cc(O)c(CC=C(C)C)c(O)c3c(=O)c2c1CC=C(C)C (stereo not given in full) show?
106

----------
System: OVCAR-4 ovarian
Experiment: NCI-60 one-dose screen, 48 h (100 = growth as untreated, 0 = no growth, -100 = all killed)
Details: 10 µM unless noted
This is part of a sample that, as a whole, favours compounds with a hit. Of some 83,000 tested, about 20% had one in any assay.
The compounds listed here are annotated with their growth.
Kindly answer with a numeric value in %, unit omitted.

>>> experimental_value("c1ccc(-c2cn3nc(-c4c[nH]c5ccccc45)sc3n2)cc1")
70.4
>>> experimental_value("Cn1cc(-c2ccc3occ(-c4cccc(-c5ccncc5)c4)c3n2)cn1")
36.5
>>> experimental_value("COc1cccc(C(=O)Nc2cccc(NC(=O)c3ccccn3)c2)c1")
96.4
>>> experimental_value("CCOC(=O)C1=C(c2ccccc2)N=C2N(c3ccccc3)N=C(C(C)=O)N2C1c1ccc(Br)cc1 (stereo not given)")
104
>>> experimental_value("CCOC(=O)c1c(C)nc2c(c1N)C(=O)C(=O)N2CCc1ccc(OC)c(OC)c1")
54.8
>>> experimental_value("CC1=C(C(=O)c2ccccc2)C(c2ccc3c(c2)OCO3)NC(=S)N1 (stereo not given)")
82.3
>>> experimental_value("Cn1cc(-c2nc(-c3c[nH]c4c(Cl)nccc34)cs2)c2ccccc21")
86.4
>>> experimental_value("COc1cccc(/C=C/C(=O)/C=C(/C=C/c2cccc(OC)c2OC)OB(F)F)c1OC")
50.7

# get_value(readout= growth, system= OVCAR-4 ovarian) for O=[N+]([O-])c1ccc(N/N=C\c2cc(Cl)ccc2O)nc1
36.1

Item CCCCCCC/C=N/NC(=O)c1ccc(-n2cc(-c3ccccc3)nn2)cc1 with OVCAR-4 ovarian - growth?
93.1

Observed growth on OVCAR-4 ovarian for O=C(Nc1cccc(Cl)c1)Oc1c(Cl)c(Cl)c(Cl)c(Cl)c1Cl , please.
89

// fetch OVCAR-4 ovarian growth for O=C(Nc1cccc(Cn2c(=O)[nH]c3ccc(Oc4ncccn4)cc3c2=O)c1)c1cccc(Cl)c1
30.5

Hi! What's the reported growth for O=C(Cn1cc(CSc2nc3ccccc3o2)nn1)Nc1ccc([N+](=O)[O-])cc1 on OVCAR-4 ovarian?
96.9
